These measurements were taken from patent US20220265618A1.

Test system: PC3 cells
Assay: Proliferation assay (Cell Titer-Glo), PC3 cells
Type: cell-based, human
Details: Homo sapiens, PC-3, 72 h; 3 days (FIG. 11)
Procedure: Proliferation was measured both at Day 0 and at Day 3, and percent of growth was determined using Luciferase assay. Cell culture: VCaP, LNCaP, 22Rv1, DU145 and PC3 cancer cell lines were obtained from ATCC. […] Proliferation Assay: Cells were plated in a 384-well format and were allowed to adhere 24h before treatment. […] Cell proliferation was measured on the day of treatment (Day 0) and on Day 3 or Day 6 or Day 14 using Cell Titer-Glo reagent (Promega) according to the manufacturer's instructions. […]
pIC50: −log10 of the molar value.
measured-quantity: pIC50

INSERT INTO results (smiles_text, measured_quantity, numeric_readout) VALUES
  ('Cn1cc(-c2cc(S(C)(=O)=O)ccc2OCC2CC2)c2ccccc2c1=O', 'pIC50', 6.26);
